Target: BRM (Homo sapiens, UniProt P51531)
Construct: made in house; host or cells: High Five insect cells
Sequence (P51531 whole entry): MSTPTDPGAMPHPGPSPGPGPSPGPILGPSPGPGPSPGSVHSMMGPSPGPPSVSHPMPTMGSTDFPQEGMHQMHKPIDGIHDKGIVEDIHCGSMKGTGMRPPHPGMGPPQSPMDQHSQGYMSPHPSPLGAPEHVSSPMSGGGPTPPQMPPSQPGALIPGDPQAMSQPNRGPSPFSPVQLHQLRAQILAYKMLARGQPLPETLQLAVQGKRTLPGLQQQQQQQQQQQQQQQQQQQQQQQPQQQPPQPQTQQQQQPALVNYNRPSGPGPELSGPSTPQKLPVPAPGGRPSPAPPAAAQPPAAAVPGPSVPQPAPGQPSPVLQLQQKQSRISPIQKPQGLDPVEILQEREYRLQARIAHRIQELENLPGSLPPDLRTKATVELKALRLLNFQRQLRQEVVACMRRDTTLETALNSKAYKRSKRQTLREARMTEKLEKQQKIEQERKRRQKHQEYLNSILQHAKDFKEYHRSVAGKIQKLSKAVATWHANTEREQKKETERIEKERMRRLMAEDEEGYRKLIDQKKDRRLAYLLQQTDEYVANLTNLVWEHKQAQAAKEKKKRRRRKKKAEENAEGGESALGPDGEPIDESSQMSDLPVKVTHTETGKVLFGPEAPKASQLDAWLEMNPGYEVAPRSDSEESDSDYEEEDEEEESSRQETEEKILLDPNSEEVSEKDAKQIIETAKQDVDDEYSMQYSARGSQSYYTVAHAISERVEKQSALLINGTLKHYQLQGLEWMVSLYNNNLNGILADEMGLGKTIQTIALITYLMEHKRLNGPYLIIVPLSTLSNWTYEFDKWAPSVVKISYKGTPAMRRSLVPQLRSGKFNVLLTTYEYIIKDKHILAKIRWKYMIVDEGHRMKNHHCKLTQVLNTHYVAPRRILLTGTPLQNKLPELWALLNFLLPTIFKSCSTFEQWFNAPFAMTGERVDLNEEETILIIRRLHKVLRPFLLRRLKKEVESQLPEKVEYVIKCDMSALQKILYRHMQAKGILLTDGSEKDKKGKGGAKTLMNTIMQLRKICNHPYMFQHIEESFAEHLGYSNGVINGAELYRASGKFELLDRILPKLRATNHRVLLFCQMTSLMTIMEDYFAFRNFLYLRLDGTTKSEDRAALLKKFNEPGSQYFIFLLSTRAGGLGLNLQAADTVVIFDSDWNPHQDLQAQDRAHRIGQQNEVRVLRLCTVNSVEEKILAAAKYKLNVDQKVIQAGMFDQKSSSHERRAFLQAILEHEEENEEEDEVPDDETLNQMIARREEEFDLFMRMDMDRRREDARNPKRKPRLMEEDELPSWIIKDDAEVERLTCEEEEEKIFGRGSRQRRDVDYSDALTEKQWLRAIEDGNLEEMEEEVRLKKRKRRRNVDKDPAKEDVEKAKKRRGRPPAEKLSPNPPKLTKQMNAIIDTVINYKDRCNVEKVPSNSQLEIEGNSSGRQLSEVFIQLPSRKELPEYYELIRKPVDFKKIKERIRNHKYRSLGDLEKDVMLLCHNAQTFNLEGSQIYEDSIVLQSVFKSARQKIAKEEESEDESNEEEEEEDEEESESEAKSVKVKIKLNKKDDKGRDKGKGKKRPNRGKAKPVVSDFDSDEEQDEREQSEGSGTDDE
Test: ATPase catalytic activity assay (ADP-Glo), BRM
Type: biochemical
Conditions: ATPase assay, selectivity BRG1/BRM, Table 10
Can you tell me Ratio (BRG1 IC50 (μM) divided by BRM IC50 (μM)) for the items I'm about to list?
No unit in the answer, only the number.

Input COc1nc(C(F)F)ccc1-c1ccc2cnc(CNC(=O)c3ccc4c(c3)S(=O)(=O)[C@@H](F)CO[C@H]4C)cc2n1 [Compound 197] . Output Ratio (BRG1 IC50 (μM) divided by BRM IC50 (μM)): 14.25

Input C[C@H]1N(c2cnc3c(c2)OCCN3c2ccc3cnc(CNC(=O)c4cc(F)c5c(c4)S(=O)(=O)[C@@H](F)CCO5)cc3n2)CC1(F)F [Compound 269] . Output Ratio (BRG1 IC50 (μM) divided by BRM IC50 (μM)): 11.77

Input CCOc1cc(C(F)F)nc2c1OCCN2c1ccc2cnc(CNC(=O)c3cc(F)c4c(c3)S(=O)(=O)[C@@H](F)CCO4)cc2n1 [Compound 91] . Output Ratio (BRG1 IC50 (μM) divided by BRM IC50 (μM)): 14.38

###

Target: BRM (Homo sapiens, UniProt P51531)
Construct: made in house; host or cells: High Five insect cells
Assay: ATPase catalytic activity assay (ADP-Glo), BRM
Assay type: biochemical
Details: ATPase assay, selectivity BRG1/BRM, Table 10
Can you tell me Ratio (BRG1 IC50 (μM) divided by BRM IC50 (μM)) for the items I'm about to list?

Input C[C@@H]1CCN1c1cnc2c(c1)OCCN2c1ccc2cnc(CNC(=O)c3cc(F)c4c(c3)S(=O)(=O)[C@@H](F)CCO4)cc2n1 [Compound 47] . Output Ratio (BRG1 IC50 (μM) divided by BRM IC50 (μM)): 16.31

Input O=C(NCc1cc2nc(N3CCCc4cc(N5CCOCC5)cnc43)ccc2cn1)c1cc(F)c2c(c1)S(=O)(=O)[C@@H](F)CCO2 [Compound 172] . Output Ratio (BRG1 IC50 (μM) divided by BRM IC50 (μM)): 13.09

Input COCCOc1ccnc2c1CCCN2c1ccc2cnc(CNC(=O)c3cc(F)c4c(c3)S(=O)(=O)[C@@H](F)CCO4)cc2n1 [Compound 189] . Output Ratio (BRG1 IC50 (μM) divided by BRM IC50 (μM)): 16.84

Input C[C@@H]1CN(c2cccc(-c3ccc4cnc(CNC(=O)c5cc(F)c6c(c5)S(=O)(=O)[C@@H](F)CCO6)cc4n3)n2)C[C@H](C)O1 [Compound 325] . Output Ratio (BRG1 IC50 (μM) divided by BRM IC50 (μM)): 13.06

###

Can you tell me pIC50 for the items I'm about to list?
In simple prose, pIC50 is minus the logarithm base ten of a concentration in moles per litre.

// pIC50 (UniProt:P51531) for O=C(NCc1cc2nc(-c3cccc(N4CCC4)n3)ccc2cn1)c1cc(F)c2c(c1)S(=O)(=O)[C@@H](F)COC2 = 8.41

// pIC50 (UniProt:P51531) for C[C@H](F)c1cnc2c(c1)OCCN2c1ccc2cnc(CNC(=O)c3cc(F)c4c(c3)S(=O)(=O)[C@@H](F)CCO4)cc2n1 = 8.22

// pIC50 (UniProt:P51531) for COc1ccc(-c2ccc3cnc(CNC(=O)c4cc(F)c5c(c4)S(=O)(=O)[C@@H](F)COC5)cc3n2)nc1[C@H]1CC1(F)F = 8.04

Data provenance is patent US12139487B2.
